TARGET_OR_SYSTEM: T1, PUF4 RNA-binding domain (Saccharomyces cerevisiae, UniProt P25339 537-888)
T1 sequence: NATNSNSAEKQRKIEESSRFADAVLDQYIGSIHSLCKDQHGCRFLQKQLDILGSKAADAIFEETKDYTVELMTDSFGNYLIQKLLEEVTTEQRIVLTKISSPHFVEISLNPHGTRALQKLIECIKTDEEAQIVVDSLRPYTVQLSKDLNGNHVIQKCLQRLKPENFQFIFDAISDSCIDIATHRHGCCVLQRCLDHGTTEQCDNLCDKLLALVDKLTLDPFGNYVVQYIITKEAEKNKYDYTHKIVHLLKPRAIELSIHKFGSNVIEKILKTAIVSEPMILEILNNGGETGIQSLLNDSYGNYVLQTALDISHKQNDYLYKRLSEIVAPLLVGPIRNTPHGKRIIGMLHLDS
ASSAY_DETAILS: Mg; RNA-MaP; 20 mM Na-HEPES pH 7.4, 30 mM KOAc, 0.75 mM MgCl2, 0.1% Tween-20, 5% glycerol, 0.1 mg/mL BSA, 2 mM DTT; 25 C; 0.0125-409.6 nM protein
MEASUREMENT_SETUP: tags: N-His6-TEV cleaved; C-SNAP kept, Cy3B-labelled; label: tethered on chip by stalled RNA polymerase
PROPERTY_LABEL: Kd

Fill in: Kd of Id_ii_S2_P5E.4_K5.3_C5.2_[T-1C]_H5.3_A5.1_F5.1_T5.2_[T11A] (ssRNA) RNA: UUUGAUUAAUAUGAUAUCGUUCUUUCUCCACACUUAUUAAAUUCUUUCUCGAUAUCAUAUUAAUCUUU is ___ > 2300 nM

Now consider Id_ii_S2_P5E.4_K5.3_C5.2_[C-2A]_[T-1C]_H5.3_A5.1_F5.1_T5.2_[A12T] (ssRNA) RNA: UUUGAUUAAUAUGAUAUCGUUCUUUCUACACACUUAUUAUUUUCUUUCUCGAUAUCAUAUUAAUCUUU . > 2300 nM

Now consider Id_ii_S2_P5E.4_K5.3_C5.2_[T-1G]_H5.3_A5.1_F5.1_T5.2_[A12C] (ssRNA) RNA: UUUGAUUAAUAUGAUAUCGUUCUUUCUCGACACUUAUUAUCUUCUUUCUCGAUAUCAUAUUAAUCUUU . > 2300 nM
